# Tested on: Klebsiella pneumoniae
# assaySummary: Antimicrobial activity against ESBL-positive Klebsiella pneumoniae 17830 harboring porin OmpK36V mutant gene by Etest
# Format: functional
parameterMeasured: MIC (µg/mL)
Just the number in µg/mL, nothing appended.

C[C@@H](O)[C@H]1C(=O)N2C(C(=O)O)=C(S[C@@H]3CN[C@H](C(=O)N(C)C)C3)[C@H](C)[C@H]12 [MEROPENEM] : 1.5

API: the following record is the query input.
Q. Please indicate MIC recorded for CO[C@@]1(NC(=O)Cc2cccs2)C(=O)N2C(C(=O)O)=C(COC(N)=O)CS[C@@H]21 [CEFOXITIN]
A. 96

---

Catalogue of molecules with associated MIC
# Tested on: Klebsiella pneumoniae
# assaySummary: Antimicrobial activity against ESBL-positive Klebsiella pneumoniae 16855 harboring porin OmpK36 and OmpK35 genes by Etest
# Assay type: functional
Just the number in µg/mL, nothing appended.

C[C@@H](O)[C@H]1C(=O)N2C(C(=O)O)=C(S[C@@H]3CN[C@H](C(=O)N(C)C)C3)[C@H](C)[C@H]12 : 0.064

Q. Please indicate MIC recorded for "CO[C@@]1(NC(=O)Cc2cccs2)C(=O)N2C(C(=O)O)=C(COC(N)=O)CS[C@@H]21"
A. 24

Q. Please indicate MIC recorded for C[C@@H](O)[C@H]1C(=O)N2C(C(=O)O)=C(SCCNC=N)C[C@H]12 [IMIPENEM ANHYDROUS]
A. 0.25

---

# System: Klebsiella pneumoniae
# assaySummary: Antimicrobial activity against ESBL-positive Klebsiella pneumoniae 29830 harboring porin OmpK36V mutant gene by Etest
# Assay type: functional
parameterMeasured: MIC

C[C@H]1[C@H](NC(=O)/C(=N\OC(C)(C)C(=O)O)c2csc(N)n2)C(=O)N1S(=O)(=O)O : > 256 µg/mL

Q. Please indicate MIC recorded for "CC(C)(O/N=C(\C(=O)N[C@@H]1C(=O)N2C(C(=O)[O-])=C(C[n+]3ccccc3)CS[C@H]12)c1csc(N)n1)C(=O)O"
A. > 32 µg/mL

Q. Please indicate MIC recorded for C[C@@H](O)[C@H]1C(=O)N2C(C(=O)O)=C(SCCNC=N)C[C@H]12 [IMIPENEM ANHYDROUS]
A. 0.19 µg/mL

Q. Please indicate MIC recorded for CO/N=C(\C(=O)N[C@@H]1C(=O)N2C(C(=O)[O-])=C(C[N+]3(C)CCCC3)CS[C@H]12)c1csc(N)n1 [CEFEPIME]
A. > 256 µg/mL

---

# Test system: Klebsiella pneumoniae
# assaySummary: Antimicrobial activity against ESBL-positive Klebsiella pneumoniae 71697 harboring porin OmpK36V mutant gene by Etest
# Type: functional
Catalogue of molecules with associated MIC

Consider the worked cases shown below.
CO/N=C(\C(=O)N[C@@H]1C(=O)N2C(C(=O)O)=C(COC(C)=O)CS[C@H]12)c1csc(N)n1 : > 32 mg/L
C[C@H]1[C@H](NC(=O)/C(=N\OC(C)(C)C(=O)O)c2csc(N)n2)C(=O)N1S(=O)(=O)O : > 256 mg/L
CO/N=C(\C(=O)N[C@@H]1C(=O)N2C(C(=O)[O-])=C(C[N+]3(C)CCCC3)CS[C@H]12)c1csc(N)n1 [CEFEPIME] : > 256 mg/L

API: the following record is the query input.
Q. Please indicate MIC recorded for "CC(C)(O/N=C(\C(=O)N[C@@H]1C(=O)N2C(C(=O)[O-])=C(C[n+]3ccccc3)CS[C@H]12)c1csc(N)n1)C(=O)O"
A. > 32 mg/L

---

Catalogue of compounds with associated MIC
# Tested on: Klebsiella pneumoniae
# assaySummary: Antimicrobial activity against ESBL-positive Klebsiella pneumoniae 11932 harboring porin OmpK36 gene by Etest
# Assay type: functional

Consider the worked cases shown below.
C[C@H]1[C@H](NC(=O)/C(=N\OC(C)(C)C(=O)O)c2csc(N)n2)C(=O)N1S(=O)(=O)O [AZTREONAM] : > 256 µg/mL
CO/N=C(\C(=O)N[C@@H]1C(=O)N2C(C(=O)O)=C(COC(C)=O)CS[C@H]12)c1csc(N)n1 [CEFOTAXIME] : > 32 µg/mL

API: the following record is the query input.
Q. Please indicate MIC recorded for CC(C)(O/N=C(\C(=O)N[C@@H]1C(=O)N2C(C(=O)[O-])=C(C[n+]3ccccc3)CS[C@H]12)c1csc(N)n1)C(=O)O [CEFTAZIDIME]
A. > 32 µg/mL
